For each record, write down the corresponding Dmax.
molecular target: SMARCA2 (Homo sapiens); assay: MSD SMARCA2 degradation in A549 cell line; type: cell-based; details: A549, A549 cells, 24 h

Fill in the blank: the reported Dmax of C#Cc1ccc(CNC(=O)[C@@H]2C[C@@H](O)CN2C(=O)[C@@H](NC(=O)N2CC3(CC(N4CCC(c5cnc(N6CCc7[nH]c8nnc(-c9ccccc9O)cc8c7[C@H]6CC)nc5)CC4)C3)C2)C(C)(C)C)cc1 [I-136] is ____.
> 90%

Fill in the blank: the reported Dmax of Cc1ncsc1-c1ccc(CNC(=O)[C@@H]2C[C@@H](O)CN2C(=O)C(c2cc(N3CC4(CCC(N5CCC(c6cnc(N7CCc8[nH]c9nnc(-c%10ccccc%10O)cc9c8[C@@H]7C)nc6)CC5)CC4)C3)no2)C(C)C)cc1 (single isomer, unassigned) [I-9] is ____.
70 to 90%

Fill in the blank: the reported Dmax of C#Cc1ccc(CNC(=O)[C@@H]2C[C@@H](O)CN2C(=O)[C@H](NC(=O)N2CC3(CC(N4CCC(c5cnc(N6CCc7[nH]c8nnc(-c9ccccc9O)cc8c7[C@H]6C)nc5)CC4)C3)C2)C(C)(C)CCN2CCNCC2)cc1 [I-339] is ____.
< 50%

Fill in the blank: the reported Dmax of C#Cc1ccc(CNC(=O)[C@@H]2C[C@@H](O)CN2C(=O)[C@@H](NC(=O)N2CC3(CC(N4CCC(c5cnc(N6CCc7[nH]c8nnc(-c9ccccc9O)cc8c7[C@H]6CO)nc5)CC4)C3)C2)C(C)(C)C)cc1 [I-146] is ____.
> 90%

* * *

target: SMARCA2 (Homo sapiens, UniProt P51531); test: SMARCA2 Western blot degradation in MV4-11 cells; type: cell-based; set-up: SMARCA2/SMARCA4 protein degradation selectivity in MV4-11 cells; endogenous in cells; host or cells: MV4-11; conditions: SMARCA2/4 selectivity, MV4-11 cells
Sequence (P51531 whole entry): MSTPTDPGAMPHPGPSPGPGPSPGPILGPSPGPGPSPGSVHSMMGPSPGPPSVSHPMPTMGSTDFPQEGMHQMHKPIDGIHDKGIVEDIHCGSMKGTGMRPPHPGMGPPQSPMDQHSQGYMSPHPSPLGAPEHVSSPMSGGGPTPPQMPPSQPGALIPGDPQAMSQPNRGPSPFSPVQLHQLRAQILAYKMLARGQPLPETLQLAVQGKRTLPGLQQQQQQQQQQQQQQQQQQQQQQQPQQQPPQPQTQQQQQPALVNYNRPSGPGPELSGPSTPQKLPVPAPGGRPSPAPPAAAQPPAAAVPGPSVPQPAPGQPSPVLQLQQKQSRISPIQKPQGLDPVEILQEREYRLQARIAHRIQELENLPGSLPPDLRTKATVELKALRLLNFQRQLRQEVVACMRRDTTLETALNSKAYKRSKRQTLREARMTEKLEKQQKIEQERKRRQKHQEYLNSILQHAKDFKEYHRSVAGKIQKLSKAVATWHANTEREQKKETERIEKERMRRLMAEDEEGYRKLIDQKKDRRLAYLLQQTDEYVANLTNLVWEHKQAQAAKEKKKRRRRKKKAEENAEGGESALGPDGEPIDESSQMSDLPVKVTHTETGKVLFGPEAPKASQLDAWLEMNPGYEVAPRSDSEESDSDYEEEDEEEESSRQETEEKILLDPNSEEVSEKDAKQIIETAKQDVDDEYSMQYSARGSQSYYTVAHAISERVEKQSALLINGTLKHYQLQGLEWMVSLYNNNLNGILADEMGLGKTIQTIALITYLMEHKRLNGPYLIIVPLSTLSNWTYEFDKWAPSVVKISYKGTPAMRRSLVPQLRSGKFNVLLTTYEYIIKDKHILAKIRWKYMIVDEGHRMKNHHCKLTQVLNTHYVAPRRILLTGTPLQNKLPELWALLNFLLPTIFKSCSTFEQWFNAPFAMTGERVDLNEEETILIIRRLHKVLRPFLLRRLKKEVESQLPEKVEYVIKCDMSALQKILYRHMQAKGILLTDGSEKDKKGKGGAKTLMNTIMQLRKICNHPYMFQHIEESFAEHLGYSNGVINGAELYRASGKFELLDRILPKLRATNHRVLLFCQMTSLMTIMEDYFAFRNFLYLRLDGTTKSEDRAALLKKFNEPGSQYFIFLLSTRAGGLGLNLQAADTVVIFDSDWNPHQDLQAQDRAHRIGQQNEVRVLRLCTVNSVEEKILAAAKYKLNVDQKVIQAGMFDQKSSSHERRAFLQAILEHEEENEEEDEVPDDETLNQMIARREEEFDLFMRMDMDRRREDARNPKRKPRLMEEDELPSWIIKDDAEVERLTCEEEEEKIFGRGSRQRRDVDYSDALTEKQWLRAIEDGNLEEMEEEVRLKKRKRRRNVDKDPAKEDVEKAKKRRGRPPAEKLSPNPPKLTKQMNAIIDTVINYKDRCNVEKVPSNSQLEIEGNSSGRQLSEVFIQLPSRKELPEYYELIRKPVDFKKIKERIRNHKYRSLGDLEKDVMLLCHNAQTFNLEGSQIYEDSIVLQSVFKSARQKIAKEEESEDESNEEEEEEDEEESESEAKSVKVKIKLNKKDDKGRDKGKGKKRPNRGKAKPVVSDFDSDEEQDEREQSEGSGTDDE
measurementType: Selectivity in MV411

Solved entries (count: 5):
- C#Cc1ccc(CNC(=O)[C@@H]2C[C@@H](O)CN2C(=O)[C@@H](NC(=O)[C@H]2CCC3(CC2)C[C@H](N2CCC(c4cnc(N5CCN6c7cc(-c8ccccc8O)nnc7NC[C@H]6C5)nc4)CC2)C3)C(C)(C)C)c(Cl)c1 (single isomer, unassigned) [I-99]: B (B (>100-500 fold))
- C#Cc1ccc(CNC(=O)[C@@H]2C[C@@H](O)CN2C(=O)[C@@H](NC(=O)[C@H]2CCC3(CC2)C[C@H](N2CCC(N4CCC(N5CCN6c7cc(-c8ccccc8O)nnc7NC[C@H]6C5)CC4)CC2)C3)C(C)(C)C)c(Cl)c1 (some centres unmarked) [I-222]: B (B (>100-500 fold))
- C#Cc1cc(F)c(CNC(=O)[C@@H]2C[C@@H](O)CN2C(=O)[C@@H](NC(=O)N2CC3(CC(N4CCC(c5cnc(N6CCc7[nH]c8nnc(-c9ccccc9O)cc8c7[C@H]6C)nc5)CC4)C3)C2)C(C)(C)C)cc1F: C (C (10-100 fold))
- Cc1ncsc1-c1ccc(CNC(=O)[C@@H]2C[C@@H](O)CN2C(=O)[C@@H](NC(=O)N2CC3(CCC(N4CCC(c5cnc(N6CCc7[nH]c8nnc(-c9ccccc9O)cc8c7[C@@H]6C)nc5)CC4)CC3)C2)C(C)(C)C)cc1 (single isomer, unassigned): C (C (10-100 fold))
- C#Cc1ccc(CNC(=O)[C@@H]2C[C@@H](O)CN2C(=O)[C@@H](NC(=O)c2ccc(N3CCC(N4CCC(N5CCN6c7cc(-c8ccccc8O)nnc7NC[C@H]6C5)CC4)CC3)cn2)C(C)(C)C)cc1: C (C (10-100 fold))

Fill in the blank: the reported Selectivity in MV411 of C#Cc1ccc(CNC(=O)[C@@H]2C[C@@H](O)CN2C(=O)[C@@H](NC(=O)[C@H]2CC3(C2)C[C@H](c2cnc(N4CCC(N5CCN6c7cc(-c8ccccc8O)nnc7NC[C@H]6C5)CC4)nc2)C3)C(C)(C)C)cc1 (single isomer, unassigned) [I-301] is ____.
C (C (10-100 fold))

Fill in the blank: the reported Selectivity in MV411 of Cc1ncsc1-c1ccc(CNC(=O)[C@@H]2C[C@@H](O)CN2C(=O)C(c2cc(N3CCC(CCN4CCC(c5cnc(N6CCc7[nH]c8nnc(-c9ccccc9O)cc8c7[C@H]6C)nc5)CC4)CC3)no2)C(C)C)cc1 (some centres unmarked) is ____.
C (C (10-100 fold))

Fill in the blank: the reported Selectivity in MV411 of C#Cc1ccc([C@H](C)NC(=O)[C@@H]2C[C@@H](O)CN2C(=O)C(c2cc(N3CCC(CN4CCC(N5CCC(N6CCN7c8cc(-c9ccccc9O)nnc8NC[C@H]7C6)CC5)CC4)CC3)no2)C(C)C)c(Cl)c1 (some centres unmarked) is ____.
C (C (10-100 fold))

* * *

For each record, write down the corresponding DC50.
target: SMARCA2 (Homo sapiens, UniProt P51531); experiment: SMARCA2 Western blot degradation in MV4-11 cells; format: cell-based; parameters: SMARCA2/SMARCA4 protein degradation selectivity in MV4-11 cells; endogenous in cells; host or cells: MV4-11; conditions: MV4-11 cells, 24 h; read-out: SMARCA2 MSD MV411 degradation 24 h: Mean external-Abs DC50

Fill in the blank: the reported DC50 of C#Cc1ccc(CNC(=O)[C@@H]2C[C@@H](O)CN2C(=O)[C@@H](NC(=O)N2CCC(N3CC4(CC(N5CC6(CC(N7CCc8[nH]c9nnc(-c%10ccccc%10O)cc9c8[C@H]7C)C6)C5)C4)C3)CC2)C(C)(C)C)cc1 [I-209] is ____.
> 100 nM

Fill in the blank: the reported DC50 of Cc1ncsc1-c1ccc(CNC(=O)[C@@H]2C[C@@H](O)CN2C(=O)[C@@H](NC(=O)[C@H]2CC3(CC[C@H](N4CCC(c5cnc(N6CCN7c8cc(-c9ccccc9O)nnc8NC[C@H]7C6)nc5)CC4)CC3)C2)C(C)(C)C)cc1 (single isomer, unassigned) [I-65] is ____.
1 to 10 nM

Fill in the blank: the reported DC50 of C#Cc1cnc(CNC(=O)[C@@H]2C[C@@H](O)CN2C(=O)[C@@H](NC(=O)[C@H]2CCC3(CC2)C[C@H](N2CCC(c4cnc(N5CCN6c7cc(-c8ccccc8O)nnc7NC[C@H]6C5)nc4)CC2)C3)C(C)(C)C)c(OC)c1 (single isomer, unassigned) [I-286] is ____.
> 100 nM

Fill in the blank: the reported DC50 of C#Cc1ccc(CNC(=O)[C@@H]2C[C@@H](O)CN2C(=O)[C@@H](NC(=O)N2CC3(CC(N4CCC(c5cnc(N6CCc7[nH]c8nnc(-c9ccccc9O)cc8c7[C@H]6C)nc5)CC4)C3)C2)C(C)(C)C)cc1Cl [I-309] is ____.
10 to 100 nM

* * *

For each record, write down the corresponding Dmax.
target: SMARCA4 (Homo sapiens); construct: SMARCA2/SMARCA4 protein degradation selectivity in MV4-11 cells; endogenous in cells; host or cells: MV4-11; assay: SMARCA4 Western blot degradation in MV4-11 cells; type: cell-based; settings: MV4-11, MV4-11 cells, 24 h; read-out: SMARCA4 MSD MV411 degradation 24 h: average Dmax %
Sequence (P51532 whole entry): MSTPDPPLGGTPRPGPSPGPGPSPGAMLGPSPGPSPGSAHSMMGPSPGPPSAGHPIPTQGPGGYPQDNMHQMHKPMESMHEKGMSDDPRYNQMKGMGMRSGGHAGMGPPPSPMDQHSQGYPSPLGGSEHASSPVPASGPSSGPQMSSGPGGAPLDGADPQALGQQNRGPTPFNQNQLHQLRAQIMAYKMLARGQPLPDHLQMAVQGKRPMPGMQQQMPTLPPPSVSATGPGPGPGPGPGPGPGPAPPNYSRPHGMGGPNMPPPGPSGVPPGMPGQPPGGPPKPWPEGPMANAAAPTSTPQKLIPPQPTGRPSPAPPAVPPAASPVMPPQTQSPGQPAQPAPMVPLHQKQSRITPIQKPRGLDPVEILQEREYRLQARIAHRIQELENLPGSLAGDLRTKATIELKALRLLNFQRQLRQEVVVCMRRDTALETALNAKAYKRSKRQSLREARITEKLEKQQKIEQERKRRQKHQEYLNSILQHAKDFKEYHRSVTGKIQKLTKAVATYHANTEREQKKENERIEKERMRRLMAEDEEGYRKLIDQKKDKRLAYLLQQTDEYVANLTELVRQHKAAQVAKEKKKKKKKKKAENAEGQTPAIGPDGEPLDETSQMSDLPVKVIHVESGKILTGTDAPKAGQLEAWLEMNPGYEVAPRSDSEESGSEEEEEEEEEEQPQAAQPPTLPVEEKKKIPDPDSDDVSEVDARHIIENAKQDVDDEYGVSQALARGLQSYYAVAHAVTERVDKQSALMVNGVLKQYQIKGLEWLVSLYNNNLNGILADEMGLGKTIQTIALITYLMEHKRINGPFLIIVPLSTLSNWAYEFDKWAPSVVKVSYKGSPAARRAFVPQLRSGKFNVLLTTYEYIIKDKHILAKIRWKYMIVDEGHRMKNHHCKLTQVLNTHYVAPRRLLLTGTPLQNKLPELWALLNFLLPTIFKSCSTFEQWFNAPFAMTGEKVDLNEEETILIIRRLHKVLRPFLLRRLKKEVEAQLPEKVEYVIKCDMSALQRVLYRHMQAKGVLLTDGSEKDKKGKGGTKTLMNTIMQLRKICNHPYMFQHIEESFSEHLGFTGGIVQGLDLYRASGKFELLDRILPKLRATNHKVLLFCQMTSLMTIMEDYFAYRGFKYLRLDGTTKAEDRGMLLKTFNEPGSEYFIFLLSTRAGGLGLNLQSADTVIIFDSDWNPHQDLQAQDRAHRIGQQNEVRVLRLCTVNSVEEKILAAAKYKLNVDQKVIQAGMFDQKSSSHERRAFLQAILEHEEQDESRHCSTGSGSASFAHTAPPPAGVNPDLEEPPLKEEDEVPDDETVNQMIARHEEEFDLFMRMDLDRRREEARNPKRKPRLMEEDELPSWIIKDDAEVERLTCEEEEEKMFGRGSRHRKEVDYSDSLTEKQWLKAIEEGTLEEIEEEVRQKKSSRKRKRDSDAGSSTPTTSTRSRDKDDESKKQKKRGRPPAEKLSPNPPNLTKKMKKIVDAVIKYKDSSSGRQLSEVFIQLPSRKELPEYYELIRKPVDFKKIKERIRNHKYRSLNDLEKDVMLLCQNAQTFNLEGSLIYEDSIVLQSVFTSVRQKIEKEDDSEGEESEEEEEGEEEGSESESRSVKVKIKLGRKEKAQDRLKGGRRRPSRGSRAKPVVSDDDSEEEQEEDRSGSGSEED

Fill in the blank: the reported Dmax of C#Cc1ccc(CNC(=O)[C@@H]2C[C@@H](O)CN2C(=O)[C@@H](NC(=O)N2CC3(CC(N4CCC(N5CCC(N6CCc7[nH]c8nnc(-c9ccccc9O)cc8c7[C@H]6C)CC5)CC4)C3)C2)C(C)(C)C)cc1 (single isomer, unassigned) [I-179] is ____.
50 to 70%

Fill in the blank: the reported Dmax of C#Cc1ccc(CNC(=O)[C@@H]2C[C@@H](O)CN2C(=O)[C@@H](NC(=O)N2CC3(CC(N4CCC(c5cnc(N6CCc7[nH]c8nnc(-c9ccccc9O)cc8c7[C@H]6C)nc5)CC4)C3)C2)C(C)(C)C)c(OC)c1 [I-119] is ____.
> 90%

Fill in the blank: the reported Dmax of C#Cc1c(F)cc(CNC(=O)[C@@H]2C[C@@H](O)CN2C(=O)[C@@H](NC(=O)N2CC3(CC(N4CCC(c5cnc(N6CCc7[nH]c8nnc(-c9ccccc9O)cc8c7[C@H]6C)nc5)CC4)C3)C2)C(C)(C)C)cc1F [I-402] is ____.
> 90%

Fill in the blank: the reported Dmax of C#Cc1ccc(CNC(=O)[C@@H]2C[C@@H](O)CN2C(=O)[C@@H](NC(=O)N2CCN(C[C@H]3CC[C@@H](N4CCC(N5CCc6[nH]c7nnc(-c8ccccc8O)cc7c6[C@H]5C)CC4)CC3)CC2)C(C)(C)C)cc1 [I-193] is ____.
< 50%

Fill in the blank: the reported Dmax of C#Cc1ccc(CNC(=O)[C@@H]2C[C@@H](O)CN2C(=O)[C@@H](NC(=O)N2CC3(CC(N4C[C@H]5CN(c6cnc(N7CCc8[nH]c9nnc(-c%10ccccc%10O)cc9c8[C@@H]7C)nc6)C[C@H]5C4)C3)C2)C(C)(C)C)cc1 [I-172] is ____.
70 to 90%

Fill in the blank: the reported Dmax of C#Cc1ccc([C@H](C)NC(=O)[C@@H]2C[C@@H](O)CN2C(=O)[C@@H](c2cc(OCCN3CCN4c5cc(-c6ccccc6O)nnc5NC[C@H]4C3)no2)C(C)C)cc1 (single isomer, unassigned) [I-273] is ____.
50 to 70%

Fill in the blank: the reported Dmax of C#Cc1ccc(C2(NC(=O)[C@@H]3C[C@@H](O)CN3C(=O)[C@@H](NC(=O)N3CC4(CC(N5CCC(N6CCC(N7CCc8[nH]c9nnc(-c%10ccccc%10O)cc9c8[C@H]7C)CC6)CC5)C4)C3)C(C)(C)C)CC2)cc1 [I-210] is ____.
< 50%

Fill in the blank: the reported Dmax of C#Cc1ccc(CNC(=O)[C@@H]2C[C@@H](O)CN2C(=O)[C@@H](NC(=O)CCCCCN2CCC(N3CC4(CC(N5CCN6c7cc(-c8ccccc8O)nnc7NC[C@H]6C5)C4)C3)CC2)C(C)(C)C)cc1 [I-251] is ____.
< 50%

Fill in the blank: the reported Dmax of Cc1ncsc1-c1ccc(CNC(=O)[C@@H]2C[C@@H](O)CN2C(=O)[C@@H](OC(=O)N2CC3(CC(N4CCN(c5cnc(N6CCN7c8cc(-c9ccccc9O)nnc8NC[C@H]7C6)nc5)CC4)C3)C2)C(C)(C)C)cc1 [I-96] is ____.
> 90%
